These measurements were taken from patent US20200017592A1.

target: T1, recombinant human IL-36R extracellular domain expressed with a C-terminal myc-myc-hexahistidine tag (human, UniProt Q9HB29 20-337); assay: SPR (Biacore 4000), mAb captured on anti-human Fc, 37°C
T1 construct: also called hIL-36R-MMH; hIL-36R.mmH
T1 sequence (Q9HB29 other isoform, or with tags, fused parts or gaps limits assumed): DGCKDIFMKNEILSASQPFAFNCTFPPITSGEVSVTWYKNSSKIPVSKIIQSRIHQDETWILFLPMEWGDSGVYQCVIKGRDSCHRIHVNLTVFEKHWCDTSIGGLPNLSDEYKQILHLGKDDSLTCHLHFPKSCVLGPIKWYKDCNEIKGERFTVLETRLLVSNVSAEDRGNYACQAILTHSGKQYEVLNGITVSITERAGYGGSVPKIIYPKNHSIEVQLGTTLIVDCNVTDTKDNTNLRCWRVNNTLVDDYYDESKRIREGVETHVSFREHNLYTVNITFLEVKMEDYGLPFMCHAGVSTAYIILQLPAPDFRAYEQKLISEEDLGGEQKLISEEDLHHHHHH
Field 'label' (enum: YES / NO). Set to YES when t½ is strictly under 4 min; else NO.

binder	group
H4H14699P2 (antibody, human IgG4 S228P, kappa, V domains shown, Fully human anti-IL-36R antibody) VH: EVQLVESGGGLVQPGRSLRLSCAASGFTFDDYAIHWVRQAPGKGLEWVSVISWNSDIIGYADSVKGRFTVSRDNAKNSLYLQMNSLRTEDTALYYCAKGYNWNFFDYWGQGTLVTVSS VL: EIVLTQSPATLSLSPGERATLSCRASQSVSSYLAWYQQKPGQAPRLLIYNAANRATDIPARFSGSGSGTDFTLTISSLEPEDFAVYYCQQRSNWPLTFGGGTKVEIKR	YES
H4H14706P2 (antibody, human IgG4 S228P, kappa, V domains shown) VH: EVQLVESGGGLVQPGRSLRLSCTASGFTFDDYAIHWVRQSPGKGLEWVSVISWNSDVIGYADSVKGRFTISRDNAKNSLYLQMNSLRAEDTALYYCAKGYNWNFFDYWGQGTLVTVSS VL: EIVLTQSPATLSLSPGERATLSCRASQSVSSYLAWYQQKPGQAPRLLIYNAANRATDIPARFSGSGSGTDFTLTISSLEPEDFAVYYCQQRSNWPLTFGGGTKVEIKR	NO
H4H14709P (antibody, human IgG4 S228P, kappa, V domains shown) VH: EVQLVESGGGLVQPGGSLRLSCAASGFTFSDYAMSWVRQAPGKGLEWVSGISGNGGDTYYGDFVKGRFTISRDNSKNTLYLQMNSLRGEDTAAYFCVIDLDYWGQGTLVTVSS VL: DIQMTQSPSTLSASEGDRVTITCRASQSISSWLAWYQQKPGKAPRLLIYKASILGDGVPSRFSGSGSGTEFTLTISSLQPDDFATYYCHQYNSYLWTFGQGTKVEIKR	NO
H4H14731P (antibody, human IgG4 S228P, kappa, V domains shown) VH: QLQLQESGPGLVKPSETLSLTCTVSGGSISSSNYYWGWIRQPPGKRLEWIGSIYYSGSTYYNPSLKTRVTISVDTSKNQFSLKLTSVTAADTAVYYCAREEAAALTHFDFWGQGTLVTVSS VL: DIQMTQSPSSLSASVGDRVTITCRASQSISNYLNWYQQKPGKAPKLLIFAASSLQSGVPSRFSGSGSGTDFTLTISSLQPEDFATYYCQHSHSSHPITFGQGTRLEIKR	NO
